# tested_target: GlcNAc(b1-4)GlcNAc(b1-4)GlcNAc(b1-4)GlcNAc(b1-4)GlcNAc
# procedure_text: glycan array binding signal (z-score within array); higher = stronger binding
# condition_context: glycan notation: IUPAC condensed, linker removed
The full list was thinned out, with the strongest signals kept by preference.
Below: a set of entries, each annotated with reported glycan array binding signal (z-score).
Form: value (number only, do not type unit).

LFA (Limax flavus) (protein) MSVLFLAASFLLLASFELVAAQGCPRQDPGDWIVIQRRLNADVNFYRGWADYKHGFGDLRCNFWLGNEKIHQLTSHGRYKLRVEFTFNNKSYFAEYSTFKILGEADKYKLQVGGYSGNAGDALTFHNGMAFSTNDRDNDADSIDCAKVYHGAWWYKTCHESNLNGKWGSKKYGEGLNWKAKTTFTATATSSLLKIKALK ... 2.87
pTFF2 (Sus scrofa), P01359 (protein) KPAACRCSRQDPKNRVNCGFPGITSDQCFTSGCCFDSQVPGVPWCFKPLPAQESEECVMEVSARKNCGYPGISPEDCAARNCCFSDTIPEVPWCFFPMSVEACHY ... -0.168
CLEC7A (Homo sapiens), Q9BXN2 (protein) MEYHPDLENLDEDGYTQLHFDSQSNTRIAVVSEKGSCAASPPWRLIAVILGILCLVILVIAVVLGTMAIWRSNSGSNTLENGYFLSRNKENHSQPTQSSLEDSVTPTKAVKTTGVLSSPCPPNWIIYEKSCYLFSMSLNSWDGSKRQCWQLGSNLLKIDSSNELGFIVKQVSSQPDNSFWIGLSRPQTEVPWLWEDGSTFSSNLFQIRTTATQENPSPNCVWIHVSVIYDQLCSVPSYSICEKKFSM ... -0.613
KILRGVCKKIMRTFLRRISKDILTGKK [NK2 (Sus scrofa)] ... 0.06

# next binder below
In: Name the reported glycan array binding signal (z-score) value associated with the binder RNase 1 (Homo sapiens) (protein) KESRAKKFQRQHMDSDSSPSSSSTYCNQMMRRRNMTQGRCKPVNTFVHEPLVDVQNVCFQEKVTCKNGQGNCYKSNSSMHITDCRLTNGSRYPNCAYRTSPKERHIIVACEGSPYVPVHFDASVEDST
Out: -0.028
